- test_settings: in isopropanol, 303.2 K
measured_metric: solubility (mole fraction)
One number for each entry.

QUERY: Which value of solubility (mole fraction) has been reported for "CC[C@H](C)[C@H]1O[C@]2(CC[C@@H]1C)C[C@@H]1C[C@@H](C/C=C(\C)[C@@H](O[C@H]3C[C@H](OC)[C@@H](O[C@H]4C[C@H](OC)[C@@H](O)[C@H](C)O4)[C@H](C)O3)[C@@H](C)/C=C/C=C3\CO[C@@H]4[C@H](O)C(C)=C[C@@H](C(=O)O1)[C@]34O)O2" in the records?
RESULT: 0.0915

###

- test_settings: in isopropanol, 313.2 K
measured_metric: solubility (mole fraction)
Give bare numbers.

QUERY: Which value of solubility (mole fraction) has been reported for "CC[C@H](C)[C@H]1O[C@]2(CC[C@@H]1C)C[C@@H]1C[C@@H](C/C=C(\C)[C@@H](O[C@H]3C[C@H](OC)[C@@H](O[C@H]4C[C@H](OC)[C@@H](O)[C@H](C)O4)[C@H](C)O3)[C@@H](C)/C=C/C=C3\CO[C@@H]4[C@H](O)C(C)=C[C@@H](C(=O)O1)[C@]34O)O2" in the records?
RESULT: 0.106

###

- test_settings: in water, 298.2 K
measured_metric: solubility (mole fraction)
Answers are plain numbers.

QUERY: Which value of solubility (mole fraction) has been reported for "CC[C@H](C)[C@H]1O[C@]2(CC[C@@H]1C)C[C@@H]1C[C@@H](C/C=C(\C)[C@@H](O[C@H]3C[C@H](OC)[C@@H](O[C@H]4C[C@H](OC)[C@@H](O)[C@H](C)O4)[C@H](C)O3)[C@@H](C)/C=C/C=C3\CO[C@@H]4[C@H](O)C(C)=C[C@@H](C(=O)O1)[C@]34O)O2" in the records?
RESULT: 5.6e-06
